Experiment: Particle size and PDI of lipid nanoparticles by dynamic light scattering
Type: physicochemical
Details: LNP 50:38.5:10:1.5, N/P 6, luciferase mRNA
QUANTITY NAME: Particle size dispersity (PDI)

> print(dat)
                                    molecule  reported.measurement
 1  CCCCC(CC#CCOC(=O)C(C)(C)CCCCCC(CCCCCC(C)(C)C(=O)OCC#CCC(CCCC)CCCC)OC(=O)CCCN(C)C)CCCC                  0.06
 2  CCCCCCCCOC(=O)C(C)(C)CCCCCC(CCCCCC(C)(C)C(=O)OCCCCCCCC)OC(=O)C1CCN(C)CC1                  0.07
 3  CCCCCCCCCCSC(=O)C(C)(C)CCCCCC(CCCCCC(C)(C)C(=O)SCCCCCCCCCC)OC(=O)C1CCN(C)CC1                  0.06
 4  CCCCCCCCCOC(=O)C(C)(C)CCCCCCC(CCCCCCC(C)(C)C(=O)OCC(CCCCC)CCCCCCC)OC(=O)CCCN(C)C (centres unmarked)                  0.07
 5  CCCCCCCCCSC(=O)C(C)(C)CCCCCC(CCCCCC(C)(C)C(=O)SCCCCCCCCC)OC(=O)C1CCN(C(C)C)CC1                  0.05
 6  CCCCCCCCCCOC(=O)C(C)(C)CCCCCC(CCCCCC(C)(C)C(=O)OCCCCCCCCCC)OC(=O)CN1CCOCC1                  0.05
 7  CCCCCCCCCSC(=O)C(C)(C)CCCCCC(CCCCCC(C)(C)C(=O)OCC#CCCC(CCCC)CCCC)OC(=O)CCCN(C)C (centres unmarked)                  0.05
 8  CCCCCCCCCOC(=O)CCCCCCC(CCCCCCC(=O)OCCCCCCCCC)OC(=O)CCCN(C)C [D1, reference compound]                  0.18
 9  CCCCCCCCCOC(=O)C(C)(C)CCCCCC(CCCCCC(C)(C)C(=O)OCC(CCCCC)CCCCCCC)OC(=O)CCCN(C)C (centres unmarked)                  0.09
10  CCCCCCCCCOC(=O)C(C)(C)CCCCCC(CCCCCC(C)(C)C(=O)OCC(CCCCC)CCCCCCC)OC(=O)CC1CCN(CCO)CC1 (centres unmarked)                  0.04
11  CCCCCCCCCCOC(=O)C(C)(C)CCCCCC(CCCCCC(C)(C)C(=O)OCCCCCCCCCC)OC(=O)CCN1CCCC1                  0.05
